This collection of values is drawn from patent US11286268B1.

target-system: recombinant eIF4E (Homo sapiens (Human))
test-protocol: Fluorescence polarization competition assay for eIF4E binding potency
condition-summary: fluorescence polarization competition, 75 nM recombinant eIF4E, 20 nM EDA-m7GDP-ATTO-550; IC50 class; read-out: elF4E FP
parameter-measured: IC50

// known answers, use as guide
# molecule, IC50
measured = [
    ("Cc1nc2cc(C(F)(F)F)c(C3CCNCC3)cc2c(=O)n1CCOc1ccc(Cl)cc1-c1ccnc2c(C(=O)O)csc12 [compound 880]", "0.05 to 1 µM"),
    ("Cc1cc(-c2cc(Cl)ccc2OCCn2c(C)nc3cc(C(F)(F)F)cc(C#N)c3c2=O)c2scc(C(=O)O)c2n1 [compound 121]", "< 0.05 µM"),
    ("N#Cc1cc2c(=O)n(CCOc3ccc(Cl)cc3-c3csc(C(=O)O)c3)cnc2cn1 [compound 80]", "0.05 to 1 µM"),
    ("CCc1cc(-c2cc(Cl)ccc2OCCn2c(C)nc3c(C)nc(N)c(C#N)c3c2=O)c2scc(C(=O)O)c2n1 [Compound 1069]", "< 0.05 µM"),
    ("Cc1nc2cc(C(F)(F)F)cc(Br)c2c(=O)n1CCOc1ccc(Cl)cc1-c1cccc(C(=O)O)c1 [compound 304]", "> 1 µM"),
    ("Cc1nc2ccc(CCN(C)C)c(C#N)c2c(=O)n1CCOc1ccc(Cl)cc1-c1ccc(C(F)F)c2c(C(=O)O)csc12 [compound 577]", "< 0.05 µM"),
    ("Cc1cc(-c2cc(Cl)ccc2OCCn2c(C)nc3cc(Cl)c(N4CCN(C)CC4)c(C#N)c3c2=O)c2sc(C)c(C(=O)O)c2n1 [compound 741]", "< 0.05 µM"),
    ("Cc1nc2cnc(C3=CCN(C)CC3)c(C#N)c2c(=O)n1CCOc1ccc(Cl)cc1-c1ccnc2c(C(=O)O)csc12 [compound 888]", "< 0.05 µM"),
]

Now look at this one.
Ask: Consider the molecule shown here: Cc1cc(-c2cc(Cl)ccc2OCCn2c(C)nc3cc(F)c(C4=CCCC4)c(C#N)c3c2=O)c2scc(C(=O)O)c2n1 [compound 805] What is its recorded IC50?
Result: < 0.05 µM

====

target-system: recombinant eIF4E (Homo sapiens (Human), UniProt P06730)
Sequence (P06730 whole entry): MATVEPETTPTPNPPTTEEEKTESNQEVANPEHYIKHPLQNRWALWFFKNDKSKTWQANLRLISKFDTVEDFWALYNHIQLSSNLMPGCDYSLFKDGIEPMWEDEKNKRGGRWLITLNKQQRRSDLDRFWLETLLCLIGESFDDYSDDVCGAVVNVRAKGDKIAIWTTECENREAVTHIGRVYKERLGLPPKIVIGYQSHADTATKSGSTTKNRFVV
test-protocol: Fluorescence polarization competition assay for eIF4E binding potency
condition-summary: fluorescence polarization competition, 75 nM recombinant eIF4E, 20 nM EDA-m7GDP-ATTO-550; IC50 class; read-out: elF4E FP
Items are presented alongside their recorded IC50.

Past entries and their recorded results:
# compound, IC50
records = [
    ("Cc1cc(-c2cc(Cl)ccc2OCCn2c(C)nc3cnc(-c4ccc(Cl)cc4)c(C#N)c3c2=O)c2scc(C(=O)O)c2n1", "< 0.05 µM"),
    ("Cc1cc(-c2cc(Cl)ccc2OCCn2c(C)nc3c(OC(F)F)ncc(C#N)c3c2=O)c2scc(C(=O)O)c2n1", "0.05 to 1 µM"),
    ("Cc1cc(-c2cc(Cl)ccc2OCCn2c(C)nc3c(F)c(C(F)(F)F)cc(C#N)c3c2=O)c2scc(C(=O)O)c2n1", "< 0.05 µM"),
    ("CON(C)c1ncc2nc(C)n(CCOc3ccc(Cl)cc3-c3cc(C)nc4c(C(=O)O)csc34)c(=O)c2c1C#N", "< 0.05 µM"),
    ("Cc1sc2c(-c3cc(Cl)ccc3OCCn3c(C)nc4cc(C(F)(F)F)c(Cl)c(C#N)c4c3=O)ccnc2c1C(=O)O", "< 0.05 µM"),
    ("Cc1ccc(C)c(-c2c(C(F)(F)F)cc3nc(C)n(CCOc4ccc(Cl)cc4-c4cc(C)nc5c(C(=O)O)csc45)c(=O)c3c2C#N)n1", "< 0.05 µM"),
    ("N#Cc1cc2c(=O)n(CCOc3ccc(Cl)cc3-c3cnc(C(=O)O)s3)cnc2cn1", "> 1 µM"),
    ("COCc1cc(F)c2cc(C)n(CCOc3ccc(Cl)cc3-c3ccnc4c(C(=O)O)csc34)c(=O)c2c1C#N", "0.05 to 1 µM"),
    ("Cc1cc(-c2cc(Cl)ccc2OCCn2c(C)nc3c(-c4ccccc4)nc(N(C)C)c(C#N)c3c2=O)c2scc(C(=O)O)c2n1", "< 0.05 µM"),
    ("N#Cc1cc(C#N)c2c(=O)n(CCOc3ccc(Cl)cc3-c3cccc(C(=O)O)c3)c(CF)nc2c1", "< 0.05 µM"),
]

Ask: Hello, I am looking for reported IC50 with recombinant eIF4E (Homo sapiens (Human), UniProt P06730) for Cc1nc2cnc(N(C)C3CCN(CC(C)(F)F)CC3)c(C#N)c2c(=O)n1CC#Cc1ccc(Cl)cc1-c1ccnc2c(C(=O)NS(=O)(=O)C3COC3)csc12 . Could you help?
Result: < 0.05 µM

Ask: Short answer please: IC50, recombinant eIF4E (Homo sapiens (Human), UniProt P06730), entry Cc1cc(-c2cc(Cl)ccc2OCCn2c(C)nc3c(C)nc(C)c(C#N)c3c2=O)c2scc(C(=O)O)c2n1
Result: < 0.05 µM

Ask: recombinant eIF4E (Homo sapiens (Human), UniProt P06730) / IC50 / Cc1nc2c(F)cc(C(F)F)c(C#N)c2c(=O)n1CC#Cc1ccc(Cl)cc1-c1ccnc2c(C(=O)O)csc12 : value?
Result: < 0.05 µM

Ask: Test system recombinant eIF4E (Homo sapiens (Human), UniProt P06730); read-out IC50; what value for Cc1nc2cc(C(F)(F)F)c(CN(C)C)c(C#N)c2c(=O)n1CC#Cc1ccc(Cl)cc1-c1ccnc2c(C(=O)O)csc12 ?
Result: < 0.05 µM

Ask: Can you look up IC50 on recombinant eIF4E (Homo sapiens (Human), UniProt P06730) for Cc1cc(-c2cc(Cl)ccc2OCCn2c(C)nc3cc(C(C)N(C)C)c(OC(F)F)c(C#N)c3c2=O)c2scc(C(=O)O)c2n1 (centres unmarked) ?
Result: < 0.05 µM

Ask: Recall the recorded IC50 for Cc1nc2c(C(F)(F)F)ncc(C#N)c2c(=O)n1CCOc1ccc(Cl)cc1-c1cccc(C(=O)O)c1 with recombinant eIF4E (Homo sapiens (Human), UniProt P06730) and state it.
Result: 0.05 to 1 µM

Ask: Query the reported IC50 for recombinant eIF4E (Homo sapiens (Human), UniProt P06730); item: CNc1ncc(-c2cc(Cl)ccc2OCCn2cnc3cnc(C#N)cc3c2=O)nc1C(=O)O
Result: > 1 µM

Ask: For recombinant eIF4E (Homo sapiens (Human), UniProt P06730), provide IC50 of Cc1cc(-c2cc(Cl)ccc2OCCn2c(C)nc3cc(C(F)(F)F)c(N4CCC(Cl)CC4)c(C#N)c3c2=O)c2scc(C(=O)O)c2n1 please.
Result: < 0.05 µM

Ask: Param readout = IC50; param system = recombinant eIF4E (Homo sapiens (Human), UniProt P06730); param query = Cc1nc2cc(S(=O)(=O)N(C)C)c(F)c(C#N)c2c(=O)n1CCOc1ccc(Cl)cc1-c1ccnc2c(C(=O)O)csc12 ; response: value
Result: < 0.05 µM

Ask: Fill in the recorded IC50 for this compound, with recombinant eIF4E (Homo sapiens (Human), UniProt P06730) as test system: Cc1nc2cc(C(F)(F)F)c(Cl)c(C#N)c2c(=O)n1CCOc1ccc(Cl)cc1-c1ccnc2c(C(=O)NS(C)(=O)=O)csc12
Result: < 0.05 µM

Ask: Give recombinant eIF4E (Homo sapiens (Human), UniProt P06730) IC50 for Cc1nc2cnc(N(C)C3CCN(CC(C)(F)F)CC3)c(C#N)c2c(=O)n1CC#Cc1ccc(Cl)cc1-c1ccnc2c(C(=O)NS(=O)(=O)c3ccccn3)csc12
Result: < 0.05 µM

Ask: Find IC50 (recombinant eIF4E (Homo sapiens (Human), UniProt P06730)) for the entry Cc1nc(N2CCN(CC(F)(F)F)CC2)c(C#N)c2c(=O)n(CCOc3ccc(Cl)cc3-c3ccnc4c(C(=O)O)csc34)c(C)nc12
Result: < 0.05 µM

Ask: Identify the measured IC50 of Cc1cc(-c2cc(Cl)ccc2OCCn2c(C)nc3cnc(N(C)C)c(C#N)c3c2=O)c2scc(C(=O)O)c2n1 for recombinant eIF4E (Homo sapiens (Human), UniProt P06730).
Result: < 0.05 µM

Ask: Record Cc1nc2cc(C(F)(F)F)cc(Br)c2c(=O)n1CCOc1ccc(Cl)cc1-c1ccnc2c(C(=O)O)csc12 : what is its IC50 with recombinant eIF4E (Homo sapiens (Human), UniProt P06730)?
Result: 0.05 to 1 µM

Ask: Return IC50 measured with recombinant eIF4E (Homo sapiens (Human), UniProt P06730) given this compound: Cc1nc2cncc(C#N)c2c(=O)n1CCOc1ccc(Cl)cc1-c1ccnc(C(=O)O)c1
Result: < 0.05 µM

Ask: Value wanted: IC50 (recombinant eIF4E (Homo sapiens (Human), UniProt P06730)) of entry Cc1c(O)c2cc(C(F)(F)F)cc(C#N)c2c(=O)n1CCOc1ccc(Cl)cc1-c1ccnc2c(C(=O)O)csc12
Result: 0.05 to 1 µM
